Attribution: patent US10479780B2

# MEASUREMENT TARGET: human Src enzyme (Homo sapiens)
# Construct: purchased Carna Biosciences, Inc. 08-173
# Sequence (P12931 whole entry): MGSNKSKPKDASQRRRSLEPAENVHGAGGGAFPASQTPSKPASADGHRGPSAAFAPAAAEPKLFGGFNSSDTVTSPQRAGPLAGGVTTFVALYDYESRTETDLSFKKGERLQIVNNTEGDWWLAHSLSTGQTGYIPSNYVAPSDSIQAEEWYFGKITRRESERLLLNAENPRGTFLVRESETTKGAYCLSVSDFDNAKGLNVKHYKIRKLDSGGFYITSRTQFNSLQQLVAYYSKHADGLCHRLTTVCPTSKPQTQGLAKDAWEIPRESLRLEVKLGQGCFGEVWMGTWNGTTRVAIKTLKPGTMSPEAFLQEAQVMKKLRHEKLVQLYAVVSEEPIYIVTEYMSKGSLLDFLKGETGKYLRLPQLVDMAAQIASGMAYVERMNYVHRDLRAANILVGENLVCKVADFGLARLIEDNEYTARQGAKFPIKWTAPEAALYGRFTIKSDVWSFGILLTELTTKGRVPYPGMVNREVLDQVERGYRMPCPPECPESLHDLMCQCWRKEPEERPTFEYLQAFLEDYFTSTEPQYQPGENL
# EXPERIMENT NOTES: Src enzyme inhibitory activity (time-resolved fluorometry, biotinylated peptide phosphorylation)
# Assay type: biochemical
# EXPERIMENTAL CONDITIONS: biotinylated peptide phosphorylation, read-out: SRC_IC50
Output True for records whose IC50 is lower than 100 nM, False for records at or above 100 nM.

Solved entries:
- STRUCTURE SMILES STRING: "Cc1cc(Oc2ccccc2F)ncc1-n1ncc(C(=O)c2cc3cc(F)c(NS(=O)(=O)c4cncc(Cl)c4)cc3[nH]2)c1N"
  MEASUREMENT TARGET: "human Src enzyme (Homo sapiens)"
  CLASS NAME: "False"
- STRUCTURE SMILES STRING: "COc1cc2cc(C(=O)c3cnn(-c4cnc(Oc5ccccc5Cl)cc4C)c3N)[nH]c2cc1NS(C)(=O)=O"
  MEASUREMENT TARGET: "human Src enzyme (Homo sapiens)"
  CLASS NAME: "True"
- STRUCTURE SMILES STRING: "CC(=O)N1CCC(c2cc3[nH]c(C(=O)c4cnn(-c5c(C)cc(Oc6ccccc6F)cc5F)c4N)cc3cc2OCC(F)F)CC1"
  MEASUREMENT TARGET: "human Src enzyme (Homo sapiens)"
  CLASS NAME: "True"
- STRUCTURE SMILES STRING: "Cc1cc2cc(C(=O)c3cnn(-c4cnc(Oc5ccccc5F)cc4C)c3N)[nH]c2cc1NS(=O)(=O)c1csc2ccccc12"
  MEASUREMENT TARGET: "human Src enzyme (Homo sapiens)"
  CLASS NAME: "False"

# input for lookup
hey, is IC50 for "Cc1cc2cc(C(=O)c3cnn(-c4cnc(Oc5ccccc5F)cc4C)c3N)[nH]c2cc1NS(=O)(=O)c1cc(Cl)cc(C#N)c1" lower than 100 nM or not?
False
